System: K4 kissing-loop RNA reporter;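 note: bound reporter read as fluorescence of individual clusters on recovered sequencing chips by microscopy, with normalized cluster intensities fitted with a binding model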
Assay: apparent KD of K4 kissing-loop reporter; higher = weaker reporter binding
Conditions: Eterna round: R107; input ligand: FMN 200 uM
VALUE_TYPE: apparent KD of K4 kissing-loop reporter (nM)

[
  {
    "QUERY_SEQUENCE": "AGUGGACGUGUCUGGAGUGAUGUUCUGGAUACCAGACACGAAAGUGUCCCUUGGCAGCCGGAGUGAUGUUCCGGCGUUCACUAAA [Omei KL Theo A Exc B v5]",
    "NUMERIC_VALUE": 462
  },
  {
    "QUERY_SEQUENCE": "UAAUAAAUUCCAGCGAUGUCACUCUUCGAAGGAGCGGACGAAAGUCCAGGUAGGUCGCGAAGAGUGAUGUUCUUCGCGGCGCUGG [Omei KL Arginine A Exc A v3]",
    "NUMERIC_VALUE": 167
  },
  {
    "QUERY_SEQUENCE": "AGUGUUGUAUGACGGUUUGUCACUUAGGAUCAGGAUAUAUAAACAAAUAGAAGGGAUGGCGGAGUGAUGUUCCGCCGGCCGCCAU [FMN A Exl V9]",
    "NUMERIC_VALUE": 110
  },
  {
    "QUERY_SEQUENCE": "UAUGUCAUUCUCGACGGAGUGAUGUUCCGACGAGGACCGGUACGGCCGCCACUCGGCAGAAUUGAGUCUGUGAUCCUAGAUCAAU [theeternabot_exclusion_KL_Trp_A_44]",
    "NUMERIC_VALUE": 120
  },
  {
    "QUERY_SEQUENCE": "AUUGCACCUGCGGCCGCCACUCACUCCGGGCUGCUGGCCAGUGAUGUUGGUACGGCUGCCGGUUAGAGGACCGGGCAGGAGCUAA [Esage]",
    "NUMERIC_VALUE": 106
  },
  {
    "QUERY_SEQUENCE": "GCGGGCCCUGGAGGAUAUGAGUCGAGUGAUGUUCGGCGGUCCAUGCCGAUGCGGCGUUAUGCCCUUUUAGAAGGCCAGGGUCCGC [#2 Exclusion - FMN B Attempt #8 (HarryS)]",
    "NUMERIC_VALUE": 543
  },
  {
    "QUERY_SEQUENCE": "GCAGACACGCAGUGAUGUUGCGAAACGGAAGGAGCGCGUGAAAACGCAGGUAGGUCGCCGACACAUUAAUUAUAAUUUUGUUUGC [Arginine A K4 15]",
    "NUMERIC_VALUE": 279
  },
  {
    "QUERY_SEQUENCE": "AGACCACAAAGUGGUCAGUGUUCGCUCCGGCGAGGACCGGUACGGCCGCCACUCGCGAGUGAUGUUCGCGAGUGGAGCGAACACA [Omei KL Tryp A Exc A v1]",
    "NUMERIC_VALUE": 88.8
  }
]

---

Test system: MS2 coat protein
Assay: apparent KD of MS2 coat protein; designed switch direction (-1 OFF switch, 1 ON switch): -1; higher = weaker reporter binding
Settings: Eterna round: R95; input ligand: FMN 200 uM

[
  {
    "QUERY_SEQUENCE": "ACAAGCGUUUUGCUCGUAAAGUAGGAACGCGAGAGCGGCACAUGAGGAUCACCCAUGUAGAGGCAGUUGGUGGAGAU [JR_SV3TOV2_Sub030] (puzzle: Sensor v3, turn-off variant 2)",
    "apparent KD of MS2 coat protein": "24.5 nM"
  },
  {
    "QUERY_SEQUENCE": "GAAAGGUGAGGAUAUACACUGCGGUGUAGUCCUCAUAAAAGACAUGAGGAUCACCCAUGUAGAAGGCACAUAAA [Rirereis] (puzzle: Exclusion 2)",
    "apparent KD of MS2 coat protein": "96 nM"
  },
  {
    "QUERY_SEQUENCE": "UUUUUUUUGUUUUUUGUUUACAUGAGGAUCACCCAUGUGACGAGUUUAUGGGUGAACAAGCUUUUUGCUCGUCUUAU [Sensor v3 - Turn-off variant 1 - 5] (puzzle: Sensor v3, turn-off variant 1)",
    "apparent KD of MS2 coat protein": "52.4 nM"
  },
  {
    "QUERY_SEQUENCE": "UUGAAGUAAGGAUAUACAUGAGGAUCACCCAUGUAAAGGAAAGUAAUGGGAGUAGGAAGUAGAAGGUACGAGGA [JR_Exclu3_Sub062] (puzzle: Exclusion 3)",
    "apparent KD of MS2 coat protein": "49 nM"
  }
]

---

Tested on: MS2 coat protein
Experiment: apparent KD of MS2 coat protein; higher = weaker reporter binding
Settings: Eterna round: R107; input ligand: theophylline 2 mM
The threshold is inclusive: apparent KD of MS2 coat protein of exactly 50 nM counts as t; values below receive f.

[
  {
    "QUERY_SEQUENCE": "UUUGUAAUUGUCUGGUAGAUUUAUUUAUUUCGAGGACCGGUACGGCCGCCACUCGUUAAUUACAUGAGGAUCACCCAUGUUAGCU [JR_ExcTryptoA_Sub008]",
    "CLASS_NAME": "f"
  },
  {
    "QUERY_SEQUENCE": "GCUGCCAUACGAAGGAGCGCUGCUGCGAUGUGGCGAACAUGAGGAUCACCCAUGUGGCAGCAGCAGGUAGGUCGCGUAUGGCAGC [#01 Exclusion - Arginine B]",
    "CLASS_NAME": "t"
  },
  {
    "QUERY_SEQUENCE": "UCGUGCAGAGCGGCCGCCACUGUAUUGCGUGCGGAUGACGGAACAUGAGGAUCACCCAUGUUGUUUAGGACCGGGCUUGCCACCA ['xmullin]",
    "CLASS_NAME": "f"
  },
  {
    "QUERY_SEQUENCE": "CAUCCUAGUACAUGAGGAUCACCCAUGUAUCGAGGACCGGUACGGCCGCCACUCGAAUGGCGGAUCGUUAAUCCUCUAGGAUGGA [Tryp A Ex 4a]",
    "CLASS_NAME": "f"
  },
  {
    "QUERY_SEQUENCE": "GUAUCGACAUGAGGAUCACCCAUGUCCGAAGGAGCGUUGGGAACAACAGGUAGGUCGCGGACAUAGAGCAUCCGGAAACGGAUGC [EAA NP+V+V2 #1]",
    "CLASS_NAME": "f"
  },
  {
    "QUERY_SEQUENCE": "GGAUAGGACACGGCCGCCACUAGCUAGGAUACUAGCAACAUUUCCUCACUUGAGGAUCACCCAAGUAGGACCGGGUGUCCUAUCG",
    "CLASS_NAME": "t"
  },
  {
    "QUERY_SEQUENCE": "AGGUGCAAAGCACCCUCUGGCCCUCGUGAAGGAGCGCUCGAAAGAGCAGGUAGGUCGCAUGAGGAUCACCCAUGUGAGCCAGAGA [Arg A Exc A v1]",
    "CLASS_NAME": "t"
  },
  {
    "QUERY_SEQUENCE": "ACAUAUUGGUGGUACCAACGAAGGCGGAAACGAGGACCGGUACGGCCGCCACUCGGCGACAUGAGGAUCACCCAUGUGGUUAAAA [Exclusion - Tryptophan A (Freestyle 2)]",
    "CLASS_NAME": "t"
  },
  {
    "QUERY_SEQUENCE": "AGCUCGCAUCCUCUAGCGUCAAAGACGCCUCGAGGACCGGUACGGCCGCCACUCGAGAUGAGGAUCACCCAUCUCAAAGCGAGCA [TrypAX 14 #SwitchBubble #AlternativeMS2 #MS2Late #CuTurnoff]",
    "CLASS_NAME": "t"
  },
  {
    "QUERY_SEQUENCE": "UAUAUAUAUCACGAACUGUGGUGUAUGUCUCGAGGACCGGUACGGCCGCCACUCGCGCGGCCUCACAUGAGGAUCACCCAUGUUG [XTryp A #6]",
    "CLASS_NAME": "t"
  },
  {
    "QUERY_SEQUENCE": "AUAACAUGAGGAUCACCCAUGUUGAGUGAUACCAGACCAUGUAGUGUCCCUUGGCAGCACAGGUAAAGUUGUAAAUAACGAUAGA [#13 SameState-TheophyllineA]",
    "CLASS_NAME": "f"
  },
  {
    "QUERY_SEQUENCE": "CCCUGGGUGGGAAGGAGCGCAUAGUGAACAUGAGGAUCACCCAUGUGUAGACGUGAGUCACUGCAGGUAGGUCGCCCACCCAGGG [SS-ArgB23]",
    "CLASS_NAME": "f"
  },
  {
    "QUERY_SEQUENCE": "AGCAACAAGUCGGCCGCCACUCUUUUUACAUGAGGAUCACCCAUGUUUAUAUCAUGGUCUUAAUAGAGGACCGGGACAGUUGCAU [JR_ExcTryptoB_Sub006]",
    "CLASS_NAME": "f"
  },
  {
    "QUERY_SEQUENCE": "GGCUAGGCUAGCGAUACCAGCAACCAACAUGAUCUGAGGAUCACCCAGGUAGUUGGACGUUGCCCUUGGCAGCGCUAGCCUAGCC [SSThB NP+V+V2 #12 Diff Apt, Same Structure]",
    "CLASS_NAME": "f"
  },
  {
    "QUERY_SEQUENCE": "AGUAUCAGUGGAAGGAGCGUCGCGAAUGUCACAUGAGGAUCACCCAUGUCGUCUUGAGCGCGACAGGUAGGUCGCCACGGUAGGC [SS-ArgB4]",
    "CLASS_NAME": "f"
  }
]

Recorded values, source the supplement of paper PMC9170038.
